Hey, just so you know, these numbers are from patent US10968200B2.

assay: Solubility measurement of Compound 1 di-HCl in various solvents; assay type: physicochemical; details: 50 °C, organic solvent or mixture, thermodynamic from solid; solvent MeOH/water/ACN (6 v/1.5 v/3 v); 50±1° C.; by vision; read-out: Solubility at 50° C.
Counter-ions that a name gives are not always drawn.
OUTCOME_MEASURE: solubility

compound="N#CCC1(N2CCC(N[C@@H]3C[C@H]3c3ccccc3)CC2)CN(S(N)(=O)=O)C1 [Compound 1 di-HCl, dihydrochloride]" outcome_measure=solubility meas_value="> 50 mg/mL"

* * *

assay: Solubility measurement of Compound 1 di-HCl in various solvents; type: physicochemical; conditions: 50 °C, organic solvent or mixture, thermodynamic from solid; solvent MeOH/water/ACN (6 v/1 v/3 v); 50±1° C.; by vision; read-out: Solubility at 50° C.
Where a name gives a salt, the structure may show the parent alone.
OUTCOME_MEASURE: solubility

compound="N#CCC1(N2CCC(N[C@@H]3C[C@H]3c3ccccc3)CC2)CN(S(N)(=O)=O)C1 [Compound 1 di-HCl, dihydrochloride]" meas_value="> 50 mg/mL"

* * *

assay: Solubility measurement of Compound 1 di-HCl in various solvents; assay type: physicochemical; details: 25 °C, organic solvent or mixture, thermodynamic from solid; solvent Chloroform; 25±1° C.; by vision; read-out: Solubility at 25° C.
Where a name gives a salt, the structure may show the parent alone.
OUTCOME_MEASURE: solubility

compound="N#CCC1(N2CCC(N[C@@H]3C[C@H]3c3ccccc3)CC2)CN(S(N)(=O)=O)C1 [Compound 1 di-HCl, dihydrochloride]" meas_value="> 50 mg/mL"

* * *

assay: Solubility measurement of Compound 1 di-HCl in various solvents; type: physicochemical; details: 25 °C, organic solvent or mixture, thermodynamic from solid; solvent DMSO; 25±1° C.; by vision; read-out: Solubility at 25° C.
Where a name gives a salt, the structure may show the parent alone.
OUTCOME_MEASURE: solubility

molecule="N#CCC1(N2CCC(N[C@@H]3C[C@H]3c3ccccc3)CC2)CN(S(N)(=O)=O)C1 [Compound 1 di-HCl, dihydrochloride]" outcome_measure=solubility meas_value="> 50 mg/mL"

* * *

assay: Solubility measurement of Compound 1 di-HCl in various solvents; type: physicochemical; conditions: 50 °C, thermodynamic from solid; solvent Water; 50±1° C.; by vision; read-out: Solubility at 50° C.
Where a name gives a salt, the structure may show the parent alone.
OUTCOME_MEASURE: solubility

compound="N#CCC1(N2CCC(N[C@@H]3C[C@H]3c3ccccc3)CC2)CN(S(N)(=O)=O)C1 [Compound 1 di-HCl, dihydrochloride]" meas_value="> 50 mg/mL"

* * *

test: Solubility measurement of Compound 1 di-HCl in various solvents; type: physicochemical; details: 50 °C, organic solvent or mixture, thermodynamic from solid; solvent Acetone; 50±1° C., agitated 24 h
Where a name gives a salt, the structure may show the parent alone.
OUTCOME_MEASURE: solubility at 24 h

compound="N#CCC1(N2CCC(N[C@@H]3C[C@H]3c3ccccc3)CC2)CN(S(N)(=O)=O)C1 [Compound 1 di-HCl, dihydrochloride]" outcome_measure="solubility at 24 h" meas_value="850 µg/mL"

* * *

assay: Solubility measurement of Compound 1 di-HCl in various solvents; format: physicochemical; details: 50 °C, organic solvent or mixture, thermodynamic from solid; solvent EtOH; 50±1° C., agitated 24 h
Structures can show the parent of a compound that is named as a salt.
OUTCOME_MEASURE: solubility at 24 h

compound="N#CCC1(N2CCC(N[C@@H]3C[C@H]3c3ccccc3)CC2)CN(S(N)(=O)=O)C1 [Compound 1 di-HCl, dihydrochloride]" meas_value="3630 µg/mL"
